Cited source for all entries: patent US7951829B2

# tested target: hVR1 (Homo sapiens, UniProt Q8NER1)
# Sequence (Q8NER1 whole entry): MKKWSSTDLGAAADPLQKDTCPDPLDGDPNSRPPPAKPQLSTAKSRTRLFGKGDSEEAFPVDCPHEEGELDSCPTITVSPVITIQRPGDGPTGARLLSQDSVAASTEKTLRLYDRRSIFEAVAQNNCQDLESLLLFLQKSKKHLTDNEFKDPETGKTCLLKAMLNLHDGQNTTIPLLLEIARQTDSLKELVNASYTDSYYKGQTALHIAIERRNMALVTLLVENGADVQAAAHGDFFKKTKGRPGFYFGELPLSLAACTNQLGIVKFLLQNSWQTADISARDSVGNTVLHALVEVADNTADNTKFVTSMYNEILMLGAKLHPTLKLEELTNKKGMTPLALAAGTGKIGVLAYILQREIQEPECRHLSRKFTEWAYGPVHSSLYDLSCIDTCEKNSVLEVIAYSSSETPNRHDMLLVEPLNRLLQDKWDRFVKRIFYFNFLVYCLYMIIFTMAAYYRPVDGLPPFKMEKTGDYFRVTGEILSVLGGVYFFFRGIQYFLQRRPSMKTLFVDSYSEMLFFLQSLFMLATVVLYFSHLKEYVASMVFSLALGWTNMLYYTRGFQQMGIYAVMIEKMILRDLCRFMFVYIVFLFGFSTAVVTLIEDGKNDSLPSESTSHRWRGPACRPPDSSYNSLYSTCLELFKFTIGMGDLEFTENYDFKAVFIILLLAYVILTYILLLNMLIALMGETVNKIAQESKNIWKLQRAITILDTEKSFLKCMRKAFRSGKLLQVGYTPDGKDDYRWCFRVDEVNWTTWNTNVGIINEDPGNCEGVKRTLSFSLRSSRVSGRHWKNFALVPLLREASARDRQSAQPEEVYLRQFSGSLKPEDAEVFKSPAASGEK
# assay details: Human VR1 (hVR1) Functional Assay (FLIPR intracellular calcium, capsaicin challenge)
# measurement parameters: capsaicin 0.030 μM; HEK293 cells expressing hVR1
pIC50: −log10 of the molar value.
measure name: pIC50

Take a look at these entries with their results.
CNS(=O)(=O)c1ccccc1-c1ccc2[nH]c(/C=C/c3ccc(F)cc3)nc2c1 : 7.96
NS(=O)(=O)c1ccccc1-c1ccc2[nH]c(/C=C/c3ccc(Cl)cc3)nc2c1 : 8.15

I = CC(C)c1ccc(/C=C/c2nc3cc(-c4ccccc4NS(C)(=O)=O)ccc3[nH]2)cc1
II = CNS(=O)(=O)c1ccccc1-c1ccc2[nH]c(/C=C/c3cccc(C(F)(F)F)c3F)nc2c1
Lookup: # query: argmin of pIC50 over I and II Choose, then provide that item's label.
Found: II
(II: 7.31, I: 8.05)
